- CONDITION: in propylene glycol, 288.15 K
EXPERIMENTAL ENDPOINT: solubility (mole fraction)

COMPOUND STRING	TEST RESULT
Nc1ncc(Br)nc1Br	0.00037

* * *

solubility (mole fraction) for assorted compounds
- CONDITION: in isopropanol, 323.15 K

COMPOUND STRING	solubility (mole fraction)
Nc1ncc(Br)nc1Br	0.00192
Nc1nccnc1Cl	0.0109

* * *

Reported solubility (mole fraction) is given for each of the following compounds.
- CONDITION: in isopropanol, 303.15 K
EXPERIMENTAL ENDPOINT: solubility (mole fraction)

COMPOUND STRING	EXPERIMENTAL ENDPOINT	TEST RESULT
Nc1nccnc1Cl	solubility (mole fraction)	0.00591
Nc1ncc(Br)nc1Br	solubility (mole fraction)	0.00115

* * *

- CONDITION: in DMF, 283.15 K
EXPERIMENTAL ENDPOINT: solubility (mole fraction)

COMPOUND STRING	TEST RESULT
Nc1nccnc1Cl	0.0122

* * *

- CONDITION: in DMF, 308.15 K
EXPERIMENTAL ENDPOINT: solubility (mole fraction)

COMPOUND STRING	TEST RESULT
Nc1nccnc1Cl	0.0346

* * *

Here the recorded solubility (mole fraction) is given for each entry.
- CONDITION: in ethylene glycol, 298.15 K

COMPOUND STRING	solubility (mole fraction)
Nc1nccnc1Cl	0.0018
Nc1ncc(Br)nc1Br	0.000256

* * *

- CONDITION: in water, 288.15 K

COMPOUND STRING	solubility (mole fraction)
Nc1ncc(Br)nc1Br	3.73e-06
Nc1nccnc1Cl	4.95e-05

* * *

- CONDITION: in DMF, 323.15 K

COMPOUND STRING	solubility (mole fraction)
Nc1nccnc1Cl	0.0515

* * *

Recorded solubility (mole fraction) by entry
- CONDITION: in ethylene glycol, 303.15 K

COMPOUND STRING	solubility (mole fraction)
Nc1ncc(Br)nc1Br	0.000291
Nc1nccnc1Cl	0.00217

* * *

- CONDITION: in propylene glycol, 308.15 K

COMPOUND STRING	solubility (mole fraction)
Nc1ncc(Br)nc1Br	0.000651

* * *

- CONDITION: in propylene glycol, 313.15 K

COMPOUND STRING	solubility (mole fraction)
Nc1ncc(Br)nc1Br	0.000734

* * *

- CONDITION: in DMF, 313.15 K

COMPOUND STRING	solubility (mole fraction)
Nc1nccnc1Cl	0.04

* * *

Measured solubility (mole fraction), listed per entry for reference.
- CONDITION: in water, 318.15 K

COMPOUND STRING	solubility (mole fraction)
Nc1ncc(Br)nc1Br	8.61e-06
Nc1nccnc1Cl	0.00014

* * *

Each entry below lists one item and its recorded solubility (mole fraction) value.
- CONDITION: in isopropanol, 293.15 K
EXPERIMENTAL ENDPOINT: solubility (mole fraction)

COMPOUND STRING	TEST RESULT
Nc1ncc(Br)nc1Br	0.00085
Nc1nccnc1Cl	0.004

* * *

- CONDITION: in ethylene glycol, 288.15 K
Item-by-item account of solubility (mole fraction)
EXPERIMENTAL ENDPOINT: solubility (mole fraction)

COMPOUND STRING	TEST RESULT
Nc1nccnc1Cl	0.00117
Nc1ncc(Br)nc1Br	0.000185
